Every entry's value here was drawn from patent US20230174507A1.

human ACSS2 protein (Homo sapiens, UniProt Q9NR19) data, read-out IC50
Sequence (Q9NR19 whole entry): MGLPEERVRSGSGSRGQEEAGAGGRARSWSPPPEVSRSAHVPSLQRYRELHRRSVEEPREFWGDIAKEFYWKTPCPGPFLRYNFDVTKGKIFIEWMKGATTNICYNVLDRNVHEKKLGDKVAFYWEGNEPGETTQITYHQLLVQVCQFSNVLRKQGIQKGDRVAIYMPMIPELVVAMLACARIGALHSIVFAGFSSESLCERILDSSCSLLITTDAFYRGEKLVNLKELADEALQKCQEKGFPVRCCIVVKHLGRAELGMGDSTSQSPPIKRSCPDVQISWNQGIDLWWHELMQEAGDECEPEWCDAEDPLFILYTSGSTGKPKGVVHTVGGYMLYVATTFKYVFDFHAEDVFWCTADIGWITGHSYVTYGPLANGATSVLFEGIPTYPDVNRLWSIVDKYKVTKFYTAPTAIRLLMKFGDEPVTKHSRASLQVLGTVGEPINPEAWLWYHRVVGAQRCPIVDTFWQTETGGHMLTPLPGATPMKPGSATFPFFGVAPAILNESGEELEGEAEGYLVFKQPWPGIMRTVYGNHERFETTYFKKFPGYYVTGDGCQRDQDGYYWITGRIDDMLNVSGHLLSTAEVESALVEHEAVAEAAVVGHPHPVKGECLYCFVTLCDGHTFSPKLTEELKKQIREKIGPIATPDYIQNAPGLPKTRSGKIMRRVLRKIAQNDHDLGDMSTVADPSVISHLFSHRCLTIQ

Form field IC50, entry CCC(F)(F)c1cccc(NC(=O)c2c(C)[nH]c(-c3ccc(OC)c(N4CCN(C)CC4)c3)[n+]2[O-])c1 : < 0.001 µM

Form field IC50, entry Cc1cccc(C)c1-c1cc(-c2[nH]c(C)c(C(=O)Nc3cccc(C(F)(F)C4CC4)c3)[n+]2[O-])ccc1Cl : < 0.001 µM

Form field IC50, entry CCC(F)(F)c1cccc(NC(=O)c2c(C)n(COP(=O)(OC)OC)c(-c3ccc(OC)c(-c4c(C)cccc4C)c3)[n+]2[O-])c1 : > 0.03 µM

Form field IC50, entry Cc1cccc(C)c1-c1cc(-c2[nH]c(C)c(C(=O)Nc3cccc(C(F)(F)C4CC4)c3)[n+]2[O-])ccc1OC(F)F : < 0.001 µM

Form field IC50, entry CCC(F)(F)c1cccc(NC(=O)c2c(C)[nH]c(-c3ccc(OC)c(C4CCN(C)CC4)c3)[n+]2[O-])c1 : > 0.03 µM

Form field IC50, entry COc1ccc(-c2[nH]c(C)c(C(=O)Nc3cccc(C(=O)N4CCN(C)CC4)c3)[n+]2[O-])cc1-c1c(C)cccc1C : > 0.03 µM

Form field IC50, entry CCC(F)(F)c1cccc(NC(=O)c2c(C)[nH]c(-c3cc(C)cc(-c4c(C)cccc4C)c3)[n+]2[O-])c1 [Compound 130] : 0.001 to 0.03 µM
